All values here come from paper doi:10.1101/2025.03.12.642038.

Target: T1, IRF4 DBD T95R (Homo sapiens, UniProt Q15306 20-132, T95R)
T1 sequence: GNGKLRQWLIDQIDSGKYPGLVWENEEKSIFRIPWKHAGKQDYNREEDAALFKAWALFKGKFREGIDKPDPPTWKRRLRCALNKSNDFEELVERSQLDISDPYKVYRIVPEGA
Assay: FP; FP: PBS + 0.05% Tween20, 5 nM DNA, 1 h, room temperature; SPR: Biacore S200, SA chip, protein 0.1-4500 nM, running buffer not given in material; errors are SD
Details: protein: recombinant; tags: N-terminal His8-linker-His8-TEV, cleaved; label: 3' fluorescein (FAM); hairpin, TTTT loop
Endpoint Name: Kd (nM)

>>> measurement("CTTGGTTTCACTTCCTGCGTTTTCGCAGGAAGTGAAACCAAG (structured_DNA) [IRE hairpin (FAM)]")
151
